System: Saccharomyces cerevisiae
assayExplanation: protein stability index of tFT-peptide fusion (C-terminal peptide) (PSI (0-1 scale)); higher = more stable (slower turnover)
assayContext: genetic background: cdc53-1; temperature: 37 C
Hi, to clarify the labels: 1 covers protein stability index from 0.4 upward, -1 covers anything below 0.4.

Below, 5 sequences whose answers are already recorded.
SVLALLWVGCWL | 1
LRALGPRIYRIS | 1
VLVRVIYLLVSG | -1
FLPGEAVFVYCR | 1
APEWGGGDEWWG | 1

Does protein stability index meet or surpass 0.4 for ILFCVRIGLFWT ? -1

How about CCGWSGCVSGVL ? 1

How about FLFIFFFFLISF ? -1

How about HLYITGIIRKIT ? 1

How about RWRRWCVVLFVV ? -1

====

Tested on: Saccharomyces cerevisiae
assayExplanation: protein stability index of tFT-peptide fusion in deletion strain of DAS1 (PSI (0-1 scale)); higher = more stable (slower turnover)
quantity: protein stability index
In your answer, state the number alone without any accompanying words.

Some entries whose results are on file:
PDKRNHLIKELN | 0.597
RLIQPLPVQALN | 0.569
PDKWNHLIKLLN | 0.576
LFVYLSCVACIN | 0.0251
LKILRQKMNHQD | 0.667

Record request: protein stability index value, item PVLAASFWRVVG 0.68

How about KKTKKGQKQKIN ? 0.583

How about LKYLRQKMNHQN ? 0.629

How about LVVYLSCVICIN ? 0.112

How about ARWRVGLWSGAS ? 0.693

====

Tested on: Saccharomyces cerevisiae
assayExplanation: protein stability index of tFT-peptide fusion (C-terminal peptide) (PSI (0-1 scale)); higher = more stable (slower turnover)
assayContext: genetic background: wild type; temperature: 37 C
quantity: protein stability index
In your answer, state the number alone without any accompanying words.

EFFTLYDLVRFI | 0.434
CLVISVLFGVVA | 0.326
RERRISRIPCLS | 0.362
GGFRVLLWCVVW | 0.35
FDWLFFFVNFVV | 0.24

Record request: protein stability index value, item FCVCLAVTCCGG 0.42

How about VCVRLVHCLVLV ? 0.283

How about CPYSNAFALCVF ? 0.253

How about VPPLPPPGPPTF ? 0.708

How about GFVLMLLVRFEL ? 0.465

How about CYCSIGCLIIFS ? 0.409

How about LFRRMWVEIFYV ? 0.155

How about LLLLASLFFRLA ? 0.37

How about TRSLLFANRCIV ? 0.503

How about IRFFLIVFCFLR ? 0.226

How about SWGRGADRWRRA ? 0.473

How about RVITRMLLMVIR ? 0.474

How about FFVEFFLLCFCS ? 0.515

How about GKVSSFVLFHIS ? 0.475

====

System: Saccharomyces cerevisiae
assayExplanation: protein stability index of tFT-peptide fusion (C-terminal peptide) (PSI (0-1 scale)); higher = more stable (slower turnover)
assayContext: genetic background: wild type; temperature: 30 C
Listed here: items and their measured protein stability index.
In your answer, state the number alone without any accompanying words.

Some entries whose results are on file:
PPLPLPPPLLPP | 0.659
PRPDSRTRLPRP | 0.661
PPSPAPHATARP | 0.662
PHPSAAPPPNPP | 0.759
LPSPISLSPPLP | 0.652

Record request: protein stability index value, item PPPPPSAPSPLP 0.665

How about RLVVSRNFYRLC ? 0.304

====

Tested on: Saccharomyces cerevisiae
assayExplanation: protein stability index of tFT-peptide fusion (C-terminal peptide) (PSI (0-1 scale)); higher = more stable (slower turnover)
assayContext: genetic background: cdc34-1; temperature: 37 C
Hi, to clarify the labels: label 1 covers protein stability index from 0.6 upward, label 0 covers anything below 0.6.

Below, 5 sequences whose answers are already recorded.
FLPPVHRCFSIF | label 1
VGLLFGWVWSLW | label 1
LVVGCFLTFCFG | label 0
FCCLVLDLEVSG | label 0
CCMLCVVAWSGV | label 0

Does protein stability index meet or surpass 0.6 for RVDVSVLWNRRS ? label 1

How about VWLFSWSVVGGT ? label 0

How about PLYFSVFSLLFL ? label 0

How about PALYLSLWFLFP ? label 0

How about LGVLVVCFNATY ? label 0

How about LRALGPRIYRIS ? label 1

How about GFFFLFFVSAFI ? label 0

How about GCLVVVGFFSVF ? label 0

How about LLLFLHILRYVF ? label 0

How about FVVFYFFLLFGV ? label 0

How about KLMGWFVGVVAR ? label 0

How about FGVVRVSIPVGV ? label 0

How about LLAREILVIVAV ? label 0

How about CFVWFSVVLLFA ? label 0

How about RAEASFFLPKVG ? label 1

How about AFRFHTYFLLLC ? label 0

How about KTRQLINKITQM ? label 1

How about FVICGMLVHWMV ? label 0

How about LPPSPPCQSPAL ? label 1

How about PPPPPPLPSSFP ? label 1

How about LSSIIRFLIFCL ? label 0

How about CCVLGDRCIGSD ? label 1

====

Test system: Saccharomyces cerevisiae
assayExplanation: protein stability index of tFT-peptide fusion (C-terminal peptide) (PSI (0-1 scale)); higher = more stable (slower turnover)
assayContext: genetic background: wild type; temperature: 30 C
quantity: protein stability index
In your answer, state the number alone without any accompanying words.

RGLDNSGVVAGG | 0.715
SAPRRPPLIFPG | 0.672
FLCPGELSYFCV | 0.666
NKDKNDDRKLLG | 0.723
GLPSLHGTFRLS | 0.69

Record request: protein stability index value, item EGYRDMAFKLCK 0.697

How about LYGREPAGAEPT ? 0.633

====

Listed here: items and their measured protein stability index.
System: Saccharomyces cerevisiae
assayExplanation: protein stability index of tFT-peptide fusion (C-terminal peptide) (PSI (0-1 scale)); higher = more stable (slower turnover)
assayContext: genetic background: cdc34-1; temperature: 37 C
In your answer, state the number alone without any accompanying words.

Some entries whose results are on file:
YQFDGLVFLRLS | 0.716
PAVRRLTGLMLM | 0.681
FLCWLSFIPLLS | 0.203

Record request: protein stability index value, item VYFASCVVLLMV 0.159

How about VFCFCRFHFFCA ? 0.621

How about CLRFVFWFVCFV ? 0.227

How about PPSPPLPPPSPF ? 0.671

How about RVPCCLSFVPVC ? 0.508

How about LPNLPPTSPERH ? 0.638

How about VFGVWVVVGCVG ? 0.028

How about APPRLPLLSCSQ ? 0.652

How about RGGWVVVLGCVG ? 0.634

How about VGLWFLCSLAFS ? 0.444

How about ERFILVGMFGSW ? 0.702

How about FGFFDIKLPVVA ? 0.515

How about IWVFSVTGWCGC ? 0.501

How about LCLLIHFWISHL ? 0.302

How about RLPVMFWFVCSF ? 0.561

How about CSAVYNLHLLYS ? 0.696

====

Tested on: Saccharomyces cerevisiae
assayExplanation: protein stability index of tFT-peptide fusion (C-terminal peptide) (PSI (0-1 scale)); higher = more stable (slower turnover)
assayContext: genetic background: wild type; temperature: 30 C
Listed here: items and their measured protein stability index.
In your answer, state the number alone without any accompanying words.

LRNNKIKLIQKK | 0.781

# ---- query sequence ----
// fetch Saccharomyces cerevisiae protein stability index for ACPCTLCMALSR 0.648

====

Test system: Saccharomyces cerevisiae
assayExplanation: protein stability index of tFT-peptide fusion (C-terminal peptide) (PSI (0-1 scale)); higher = more stable (slower turnover)
assayContext: genetic background: doa10 deletion; temperature: 30 C
quantity: protein stability index
In your answer, state the number alone without any accompanying words.

Some entries whose results are on file:
FLLELRFTCSYS | 0.403
PFYQSGGLVVVV | 0.437
DVYIVLFIIKHG | 0.173
PFAGRLWVTSSF | 0.685

Record request: protein stability index value, item VRVLAALVLCVV 0.156

How about SSVCVLVSCVLG ? 0.363

How about FTRLDYKRIKIV ? 0.0655

How about GAVVYGICFCTN ? 0.35

How about VLVLLVCVAALV ? 0.146

How about LAVRSGFPFGLF ? 0.117

====

Test system: Saccharomyces cerevisiae
assayExplanation: protein stability index of tFT-peptide fusion (C-terminal peptide) (PSI (0-1 scale)); higher = more stable (slower turnover)
assayContext: genetic background: das1 deletion; temperature: 30 C
Hi, to clarify the labels: 1 covers protein stability index from 0.7 upward, 0 covers anything below 0.7.

Below, 5 sequences whose answers are already recorded.
FLEIVVPCHCTT [YJL077W-A C-terminal 12 aa] | 0
FKAKFRKVKINA [YKR015C C-terminal 12 aa] | 0
LSIGQKLTTPLC [SYC1 C-terminal 12 aa] | 0
NATYNDSESSLN [SPO13 C-terminal 12 aa] | 1
VAHRENLAFPPR [PRO1 C-terminal 12 aa] | 1

Does protein stability index meet or surpass 0.7 for GPTIPISATIRE [RCK2 C-terminal 12 aa] ? 0

How about YSLLIHLSKKKS [YNR005C C-terminal 12 aa] ? 0

How about STERAKELLESN [MRF1 C-terminal 12 aa] ? 0

How about EWVVPEHMLGPK [FUM1 C-terminal 12 aa] ? 1

Cited source for all entries: the supplement of paper PMC10724198
